# Test system: RCC4/VHL cells
# PROTOCOL DESCRIPTION: XTT assay, RCC4/VHL versus RCC4 cells (selectivity ratio)
# Type: cell-based
# RECORDED CONDITIONS: Table 1; selectivity ratio, IC50 in RCC4/VHL cells/IC50 in RCC4 cells
Below, each entry is listed with its recorded Ratio.

# MOLECULAR STRING, RELATION SYMBOL, Ratio
data = [
    ("Cc1ccc(Nc2nc(-c3ccncc3)cs2)cc1C", "=", 6.4),
    ("Clc1ccc(Nc2nc(-c3ccncc3)cs2)cc1", ">", 2),
    ("Cc1cc(Nc2nc(-c3ccncc3)cs2)ccc1O", "=", 2.3),
    ("Brc1cccc(Nc2nc(-c3ccncc3)cs2)c1", ">", 3.2),
    ("O=P(O)(O)Oc1ccc(Nc2nc(-c3ccncc3)cs2)cc1", "=", 6.3),
    ("OCCc1ccc(Nc2nc(-c3ccncc3)cs2)cc1", "=", 16),
    ("Oc1ccc(Nc2nc(-c3ccncc3)cs2)cc1", "=", 8),
    ("COC(=O)/C=C/c1sc(Nc2cccc(C)c2)nc1-c1ccncc1", "=", 2.8),
    ("COc1ccc(Nc2nc(-c3ccncc3)cs2)cc1OC", "=", 1.9),
    ("Cc1ccc(Nc2nc(-c3ccncc3)cs2)cc1O", "=", 4.6),
]
